Where do the numbers come from? From patent US7541375B2.

system: MEK-1 (constitutively active MEK1EE) (Homo sapiens, UniProt Q02750, S218E/S222E)
Sequence (Q02750 whole entry S218E/S222E, species assumed): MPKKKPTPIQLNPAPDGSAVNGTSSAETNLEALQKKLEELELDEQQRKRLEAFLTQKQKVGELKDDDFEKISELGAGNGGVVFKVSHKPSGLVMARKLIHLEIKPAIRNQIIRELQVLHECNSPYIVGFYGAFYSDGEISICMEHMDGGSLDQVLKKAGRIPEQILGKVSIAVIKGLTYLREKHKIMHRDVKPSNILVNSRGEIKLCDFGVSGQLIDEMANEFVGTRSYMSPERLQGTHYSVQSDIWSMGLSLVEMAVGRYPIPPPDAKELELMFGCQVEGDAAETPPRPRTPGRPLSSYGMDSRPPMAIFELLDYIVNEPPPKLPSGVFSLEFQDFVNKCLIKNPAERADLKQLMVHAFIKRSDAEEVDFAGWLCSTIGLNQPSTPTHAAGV
protocolDetails: MEK-1 enzyme assay (HTRF, phosphorylation of ERK2K52A)
measurementSetup: 3 μM ATP, 2 hours room temperature
Experimental: A 50 μl mixture containing 15 nM constitutively active MEK1EE and 300 nM of ERK2K52A were incubated either in the presence or absence of the compounds of the invention in 1% DMSO and 1× kinase buffer containing 3 μM ATP, […], […], 1 mM DTT and 100 μM Na3VO4 in Wallac 96 well black plates for 2 hours at room temperature. […]
observationType: IC50 (nM)

O=C(O[C@@H](COc1cccnc1)Cn1ccnc1)c1ccc(I)cc1    11

(I) O=C(OC(COc1ccc([N+](=O)[O-])cc1)Cn1ccnc1)c1ccc(I)cc1 (stereo not shown)
(II) COc1ccc(C(=O)OC(COc2ccccc2)Cn2ccnc2)cc1 (racemic) [4-methoxy-benzoic acid 1-imidazol-1-yl methyl-2-phenoxy-ethyl ester (racemic)]
Response body: label of entry with the larger IC50; valid values I , II . Answer by stating the label of the chosen item.
II
(II: 1630 nM, I: 15 nM)

###

Tested on: Breast cancer MCF-7 cells
protocolDetails: MCF-7 tumor cell proliferation assay
Format: cell-based
measurementSetup: Homo sapiens, MCF7; MCF-7, ATP lite cell proliferation kit
observationType: pIC50
The value called pIC50 is obtained by taking minus log10 of the concentration in mol/L.

Identify pIC50 associated with the compound COc1ccc(C(=O)O[C@@H](COc2ccccc2)Cn2ccnc2)cc1
4.49

###

system: MEK-1 (constitutively active MEK1EE) (Homo sapiens, UniProt Q02750, S218E/S222E)
protocolDetails: MEK-1 enzyme assay (HTRF, phosphorylation of ERK2K52A)
measurementSetup: 3 μM ATP, 2 hours room temperature
observationType: IC50 (nM)

O=C(OC(COc1ccccc1)Cn1ccnc1)c1ccc(I)cc1 (stereo not drawn) [Example 1]    39

(P) O=C(N[C@@H](COc1ccccc1)Cn1ccnc1)c1ccc(I)cc1 [Example 27]
(Q) O=C(NC(COc1ccc(F)cc1)Cn1ccnc1)c1ccc(I)cc1 (stereo not drawn) [Example 30]
Response body: label of entry with the larger IC50; valid values P , Q . Answer by stating the label of the chosen item.
P

###

Tested on: HT-29 cell (ATCC HTB-38)
protocolDetails: HT-29 cell anti-proliferation assay
Format: cell-based
measurementSetup: Homo sapiens; HT-29 cells, 2×10^3 cells/well
observationType: IC50 (µM)

(I) COc1ccc(C(=O)O[C@@H](COc2ccccc2)Cn2ccnc2)cc1
(II) O=C(N[C@@H](COc1ccccc1)Cn1ccnc1)c1ccc(I)cc1
Input pair: I , II . Output: entry with lower IC50. Answer by stating the label of the chosen item.
II
(II: 2.8 µM, I: 27.5 µM)

###

Test system: Colon Adeno Carcinoma (DLD-1 cell line; ATCC CCL-221)
observationType: IC50 (µM)
The figure you give is taken to be in µM; do not add the unit.

Identify IC50 associated with the compound O=C(OC(COc1ccccc1)Cn1ccnc1)c1ccc(I)cc1 (stereo not shown)
36

###

System: Breast Ductal Carcinoma (T47D cell line; ATCC HTB-133)
observationType: IC50 (µM)
The figure you give is taken to be in µM; do not add the unit.

Identify IC50 associated with the compound O=C(OC(COc1ccccc1)Cn1ccnc1)c1ccc(I)cc1 (stereo not shown) [Example 1]
11
